protein stability index for assorted sequences
assay: protein stability index of a GFP-peptide fusion (GPS, HEK-293T) (PSI 1-6); higher = more stable; settings: treatment: MLN4924 1 uM, 8 h; c terminus: a fixed tail appended;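 note: 24-mer peptide tiles fused after GFP, lentivirally expressed, FACS-sorted into six equal bins by GFP/DsRed ratio, decoded by Illumina sequencing, PSI is the read-weighted mean bin number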
measurement.label: protein stability index

VQLATLAQRVKEVLPHVPLGVIQR [AUP1] = 2.19
ACGLSDVAHVESLQEKSQCALEEY [NR2F2] = 4.67
DNLLQEMLLGGSPSDAPHAHHPLH [HNF4A] = 4
GLHYIAFRKVKQMHLNFMDEKDRI [DNAJC4] = 2.65
LDDEDDDEEDCPNPEEYNLDEPNA [SRPK2] = 5.58

----------
assay: protein stability index of a GFP-peptide fusion (GPS, HEK-293T) (PSI 1-6); higher = more stable; settings: treatment: MLN4924 1 uM, 8 h; c terminus: a fixed tail appended
Using protein stability index as the sorting value, the categories are label 0 (below 3), label 1 (3 to below 4), label 2 (4 or more)

TWYLKTIDICHDHFGWYLGWGDCV [DHCR7] = label 1
EKMTILQTYFRQNRDEVLDNLLAF [ATP6V1G1] = label 0
FSASERLSLKRELSWYRGRRPRTA [HESX1] = label 1
SNGSMHNYCPQQTKITSAFKYINT [EDNRA] = label 0
KKTQETLSQAGQKTSAALSTVGSA [TPD52L2] = label 2
KKYRLTEHERAHRGEKPHGCSLCG [ZNF649] = label 1
EVSADDETPNPPQSAQIACSSPSV [MAGEA10] = label 2
FDRTEWVQIRRLEAAGESLEEEIR [ZC2HC1C] = label 2
EPEKIYAMPDPTVPDSDIKALTTL [ESRRG] = label 2
PPRTIKRTRRRLSRNRDPGRLILS [PWWP2B] = label 2
KAQRDYELKKAAYDIEVNTRRAQA [FLOT1] = label 2
VLEVTEESIDFDQGELADQDVDPV [FBXO33] = label 2
QSAYDVADMLKQYFRDLPEPLMTN [DLC1] = label 0
ERAELAASLGLTQTQVKIWFQNKR [DLX1] = label 1
SRRDDLEALGHMFMYFLRGSLPWQ [CSNK1G1] = label 1

----------
assay: protein stability index of a GFP-peptide fusion (GPS, HEK-293T) (PSI 1-6); higher = more stable; conditions: treatment: MLN4924 1 uM, 8 h; c terminus: a fixed tail appended
protein stability index for assorted sequences
measurement.label: protein stability index

MTEWFMCAFSRTLPWSSVLRVWDM [TBC1D10A] = 2.84
SPSNVQKWLLWTEHQYRLPPMGKA [SPDEF] = 2.61
EDAEAVEQLREALHEALLEYEAGR [ESRRA] = 4.26
WMHTPEALSKHFIPYNAKFLGSTE [GULP1] = 2.3
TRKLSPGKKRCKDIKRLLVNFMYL [SMG5] = 2.62
GLGLPMSRSQNTDMVQKSVSKTLP [CLINT1] = 4.44
CPTFRVSIARLEMGPDEYEEMEEE [FBXO3] = 5.07

----------
protein stability index for assorted sequences
assay: protein stability index of a GFP-peptide fusion (GPS, HEK-293T) (PSI 1-6); higher = more stable; details: treatment: MLN4924 1 uM, 8 h; c terminus: a fixed tail appended
measurement.label: protein stability index

YSQKESGHSNWLGDPEEPLTGFSW [ATL3] = 2.78
PCSPDSSSVCVQGRCIHAGCDRII [ADAMTS4] = 3.67
NGSDPRSFPLWYEEALKDEEERAQ [MAGEA10] = 5.42
FCLLSCGILTFLAVLGRYVPGLLL [RETREG3] = 2.09
TGASFQKAQQEFAAGVFSNPAVRT [SCAMP3] = 3.79
